Test system: Escherichia coli TOP10
Assay: shrunken log2 fold change of peptide-encoding DNA abundance (4.5 h post-induction vs induction); higher = less antimicrobial activity (less host growth inhibition)
Details: time post-induction: 4.5 h; library: site-saturation at positions 5, 18, 19, 20
Property: shrunken log2 fold change

>>> df
           polymer_sequence  measured
 0  RRIRCRPPRLPRPRPRPSTWPRP   -0.0554
 1  RRIRFRPPRLPRPRPRPLDAPRP    0.0999
 2  RRIRIRPPRLPRPRPRPHCNPRP    -0.784
 3  RRIRYRPPRLPRPRPRPVEEPRP     -0.32
 4  RRIRPRPPRLPRPRPRPGINPRP    -0.178
 5  RRIRPRPPRLPRPRPRPTWYPRP    -0.133
 6  RRIRCRPPRLPRPRPRPPAPPRP      1.11
 7  RRIRFRPPRLPRPRPRPWRYPRP    -0.161
 8  RRIRARPPRLPRPRPRPEMYPRP     0.151
 9  RRIRWRPPRLPRPRPRPFAPPRP     0.505
10  RRIRQRPPRLPRPRPRPFVQPRP   -0.0936
11  RRIRWRPPRLPRPRPRPICEPRP     0.389
12  RRIRDRPPRLPRPRPRPVHSPRP    -0.243
13  RRIRIRPPRLPRPRPRPVMAPRP    -0.526
14  RRIRGRPPRLPRPRPRPKKQPRP    0.0981
15  RRIRERPPRLPRPRPRPFCKPRP    0.0112
16  RRIRTRPPRLPRPRPRPNLEPRP   -0.0562
17  RRIRERPPRLPRPRPRPQRIPRP   -0.0866
18  RRIRQRPPRLPRPRPRPYLPPRP   -0.0206
19  RRIRWRPPRLPRPRPRPCMVPRP    -0.155
20  RRIRTRPPRLPRPRPRPGPVPRP     0.141

---

Test system: Escherichia coli TOP10
Assay: shrunken log2 fold change of peptide-encoding DNA abundance (4.5 h post-induction vs induction); higher = less antimicrobial activity (less host growth inhibition)
Conditions: time post-induction: 4.5 h; library: site-saturation at positions 5, 18, 19, 20
Property: shrunken log2 fold change

In [3]: df
Out[3]:
           polymer_sequence  measured
 0  RRIRMRPPRLPRPRPRPIRTPRP   -0.0696
 1  RRIRMRPPRLPRPRPRPKKLPRP     0.354
 2  RRIRSRPPRLPRPRPRPCPLPRP    -0.823
 3  RRIRIRPPRLPRPRPRPADSPRP    -0.325
 4  RRIRCRPPRLPRPRPRPDQPPRP     0.171
 5  RRIRMRPPRLPRPRPRPTQPPRP     0.176
 6  RRIRHRPPRLPRPRPRPIVTPRP    -0.388
 7  RRIRLRPPRLPRPRPRPNIQPRP    -0.689
 8  RRIRDRPPRLPRPRPRPFYFPRP    -0.262
 9  RRIRVRPPRLPRPRPRPKNIPRP    -0.505
10  RRIRNRPPRLPRPRPRPMTVPRP     -0.12
11  RRIRKRPPRLPRPRPRPLYIPRP    -0.329
12  RRIRKRPPRLPRPRPRPVKCPRP     0.105
13  RRIRMRPPRLPRPRPRPCLIPRP   -0.0342
14  RRIRHRPPRLPRPRPRPFTWPRP    -0.408
15  RRIRRRPPRLPRPRPRPGRRPRP     0.456
16  RRIRSRPPRLPRPRPRPNLMPRP    -0.177

---

Test system: Escherichia coli TOP10
Test: shrunken log2 fold change of peptide-encoding DNA abundance (4.5 h post-induction vs induction); higher = less antimicrobial activity (less host growth inhibition)
Conditions: time post-induction: 4.5 h; library: site-saturation at positions 5, 18, 19, 20
Property: shrunken log2 fold change

>>> print(df.to_string())
           polymer_sequence         subject_of_test  measured
 0  RRIRHRPPRLPRPRPRPQGGPRP  Escherichia coli TOP10   -0.0982
 1  RRIRIRPPRLPRPRPRPDYRPRP  Escherichia coli TOP10    0.0581
 2  RRIRKRPPRLPRPRPRPDHGPRP  Escherichia coli TOP10      1.01
 3  RRIRIRPPRLPRPRPRPQTHPRP  Escherichia coli TOP10    -0.412
 4  RRIRKRPPRLPRPRPRPTTIPRP  Escherichia coli TOP10     0.259
 5  RRIRPRPPRLPRPRPRPNRHPRP  Escherichia coli TOP10   -0.0624
 6  RRIRYRPPRLPRPRPRPWHNPRP  Escherichia coli TOP10    -0.626
 7  RRIRKRPPRLPRPRPRPASCPRP  Escherichia coli TOP10     0.431
 8  RRIRFRPPRLPRPRPRPDIIPRP  Escherichia coli TOP10    0.0368
 9  RRIRSRPPRLPRPRPRPRKTPRP  Escherichia coli TOP10    0.0973
10  RRIRIRPPRLPRPRPRPEMPPRP  Escherichia coli TOP10    0.0112
11  RRIRTRPPRLPRPRPRPLCIPRP  Escherichia coli TOP10    -0.693
12  RRIRARPPRLPRPRPRPENHPRP  Escherichia coli TOP10    -0.102
13  RRIRWRPPRLPRPRPRPLERPRP  Escherichia coli TOP10    -0.148
14  RRIRGRPPRLPRPRPRPVTVPRP  Escherichia coli TOP10    0.0499
15  RRIRIRPPRLPRPRPRPMGQPRP  Escherichia coli TOP10    -0.077
16  RRIRNRPPRLPRPRPRPLIHPRP  Escherichia coli TOP10    -0.714
17  RRIRFRPPRLPRPRPRPLWWPRP  Escherichia coli TOP10     0.172
18  RRIRGRPPRLPRPRPRPYAFPRP  Escherichia coli TOP10     0.413
19  RRIRCRPPRLPRPRPRPHMCPRP  Escherichia coli TOP10     0.099
20  RRIRMRPPRLPRPRPRPEAVPRP  Escherichia coli TOP10      3.72
21  RRIRHRPPRLPRPRPRPPRGPRP  Escherichia coli TOP10     0.564
22  RRIRCRPPRLPRPRPRPTHYPRP  Escherichia coli TOP10     0.513
23  RRIRPRPPRLPRPRPRPMLLPRP  Escherichia coli TOP10    0.0229
24  RRIRSRPPRLPRPRPRPRMCPRP  Escherichia coli TOP10    -0.155
25  RRIRHRPPRLPRPRPRPVHDPRP  Escherichia coli TOP10     0.079

---

Test system: Escherichia coli TOP10;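 also: peptides expressed intracellularly from a pBAD plasmid library in pooled LB shake-flask culture, induced with 0.3% L-arabinose, DNA abundance read by NGS, three biological replicates, DESeq2 with apeglm shrinkage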
Assay: shrunken log2 fold change of peptide-encoding DNA abundance (4.5 h post-induction vs induction); higher = less antimicrobial activity (less host growth inhibition)
Settings: time post-induction: 4.5 h; library: site-saturation at positions 5, 18, 19, 20
Tag: rule met if measured shrunken log2 fold change is not below -0.05, rule not met if it is.

>>> print(df.to_string())
           polymer_sequence  category_label
 0  RRIRYRPPRLPRPRPRPSEVPRP    rule not met
 1  RRIRGRPPRLPRPRPRPYWKPRP        rule met
 2  RRIRARPPRLPRPRPRPPNWPRP        rule met
 3  RRIRSRPPRLPRPRPRPFTDPRP        rule met
 4  RRIRMRPPRLPRPRPRPPSVPRP        rule met
 5  RRIRVRPPRLPRPRPRPHLAPRP        rule met
 6  RRIRFRPPRLPRPRPRPEAHPRP        rule met
 7  RRIRPRPPRLPRPRPRPGHQPRP        rule met
 8  RRIRPRPPRLPRPRPRPHPWPRP        rule met
 9  RRIRWRPPRLPRPRPRPCSGPRP        rule met
10  RRIRHRPPRLPRPRPRPEFFPRP        rule met
11  RRIRWRPPRLPRPRPRPFDTPRP    rule not met
12  RRIRMRPPRLPRPRPRPFENPRP        rule met
13  RRIRLRPPRLPRPRPRPPWCPRP        rule met
14  RRIRGRPPRLPRPRPRPHECPRP        rule met
15  RRIRARPPRLPRPRPRPSIVPRP    rule not met
16  RRIRGRPPRLPRPRPRPYLAPRP        rule met
17  RRIRIRPPRLPRPRPRPLTMPRP    rule not met
18  RRIRTRPPRLPRPRPRPCELPRP    rule not met
19  RRIRNRPPRLPRPRPRPKDLPRP        rule met
20  RRIRMRPPRLPRPRPRPMMCPRP    rule not met
21  RRIRARPPRLPRPRPRPMLKPRP        rule met
22  RRIRTRPPRLPRPRPRPWPEPRP        rule met
23  RRIRRRPPRLPRPRPRPLRVPRP        rule met
24  RRIRWRPPRLPRPRPRPMGIPRP        rule met
25  RRIRRRPPRLPRPRPRPWCGPRP        rule met
26  RRIRCRPPRLPRPRPRPYVCPRP    rule not met
27  RRIRHRPPRLPRPRPRPGYCPRP    rule not met
28  RRIRQRPPRLPRPRPRPWIWPRP        rule met
29  RRIRQRPPRLPRPRPRPVGRPRP        rule met
30  RRIRVRPPRLPRPRPRPWLQPRP        rule met
31  RRIRDRPPRLPRPRPRPRAWPRP        rule met
32  RRIRPRPPRLPRPRPRPQRDPRP        rule met
33  RRIRCRPPRLPRPRPRPNQIPRP    rule not met
34  RRIRPRPPRLPRPRPRPLIPPRP    rule not met
35  RRIRRRPPRLPRPRPRPRRRPRP        rule met
36  RRIRYRPPRLPRPRPRPGNWPRP    rule not met
37  RRIRKRPPRLPRPRPRPFWCPRP        rule met
38  RRIRQRPPRLPRPRPRPMHQPRP    rule not met
39  RRIRDRPPRLPRPRPRPLKHPRP    rule not met
40  RRIRWRPPRLPRPRPRPKHLPRP        rule met
41  RRIRSRPPRLPRPRPRPHHEPRP        rule met
42  RRIRLRPPRLPRPRPRPPDAPRP        rule met
43  RRIRKRPPRLPRPRPRPNCFPRP        rule met
44  RRIRARPPRLPRPRPRPFSPPRP    rule not met
45  RRIRARPPRLPRPRPRPLTKPRP        rule met
46  RRIRNRPPRLPRPRPRPCNLPRP    rule not met
